Where these numbers come from: patent US12642780B2

assayName: in vivo
measurementParameters: male, C57BL/6, mouse, ip, 50 mg/kg
assayReadout: concentration at 1 hr (ng/mL)

* CN(C)C(=N)NC(=N)N [metformin, N,N-dimethylbiguanide] | 440
